Origin of measurements: PubChem BioAssay (NCI)

Please go through the items and note down their TGI.
Tested on: ACHN renal
METHOD: NCI tumour cell line growth inhibition, 48 h

Worked examples follow.
Cc1ccccc1C(=O)N1CCN(C(=O)c2ccccc2C)CC1
> 100 µM
COc1ccc(-c2cc(-c3ccccc3)[nH]c(=S)c2C#N)cc1
> 100 µM
CCOC(=O)NC(=O)c1cn(CCN2CCN(C(=O)CCCCCCCCCCC(=O)N3CCN(CCn4cc(C(=O)NC(=O)OCC)c(=O)[nH]c4=O)CC3)CC2)c(=O)[nH]c1=O
> 100 µM

Can you give me TGI for all of these, one by one?
1. CCOC(=O)C#Cc1ccccc1
2. Cc1ccc(/C=C2\Cc3c(C)cc(C)cc3C2=O)c(C(=O)O)c1
3. C/C(=N\NC(=O)CC#N)c1c(O)cc(C)oc1=O
4. CN1/C(=C\C=C\C2=[N+](C)c3ccccc3C2(C)C)C(C)(C)c2ccccc21
5. O=C(/C=C/c1ccccc1)c1ccc(NCc2nc3ccccc3[nH]2)cc1
6. NC(=O)N/N=C1\CC2C3CC4C2C4C13 (stereo unspecified)
7. Cc1ccc(-c2nc3nc(-c4ccc(F)cc4)nc(N4CCCNCC4)c3o2)cc1
8. O=C(O)[C@@H](Cc1ccc2ccccc2c1)NC(=O)n1c2ccccc2c2ccccc21

1. > 100 µM
2. > 100 µM
3. > 100 µM
4. 3.15 µM
5. 20.4 µM
6. > 100 µM
7. 3.1 µM
8. 93.6 µM

Can you give me TGI for all of these, one by one?
1. CC12CCCC3(CC(=O)C(C)(C)C3C(=O)C1)C2 (stereo unspecified)
2. COCCOCCOC1=CC(=O)c2c(O)ccc(O)c2C1=O
3. COc1ccc2c(c1)/C(=C/c1cc(OC)c(OC)c(OC)c1)C(=O)N2
4. CC(=O)OCC1OC(N2C(=O)C(=O)c3ccccc32)C(OC(C)=O)C(OC(C)=O)C1OC(C)=O (stereo unspecified)
5. CN(C)CCNC(=O)Cn1ccc(=O)c2c([N+](=O)[O-])cccc21

1. > 100 µM
2. 2.99 µM
3. > 100 µM
4. > 100 µM
5. > 100 µM
